molecular target: ΔF508-CFTR (Homo sapiens, UniProt P13569, DEL508-508); construct: host or cells: CFBE41o-, doxycycline-inducible; experiment: CFTR cell surface levels using HRP-tagged ΔF508-CFTR expressing CFBE cells, intrinsic corrector capacity; type: cell-based; conditions: HRP-tagged ΔF508-CFTR expressing CFBE cells; intrinsic corrector capacity (no co-corrector); 33° C., 20 hours; read-out: EC50
Sequence (P13569 with tags, fused parts or gaps DEL508-508): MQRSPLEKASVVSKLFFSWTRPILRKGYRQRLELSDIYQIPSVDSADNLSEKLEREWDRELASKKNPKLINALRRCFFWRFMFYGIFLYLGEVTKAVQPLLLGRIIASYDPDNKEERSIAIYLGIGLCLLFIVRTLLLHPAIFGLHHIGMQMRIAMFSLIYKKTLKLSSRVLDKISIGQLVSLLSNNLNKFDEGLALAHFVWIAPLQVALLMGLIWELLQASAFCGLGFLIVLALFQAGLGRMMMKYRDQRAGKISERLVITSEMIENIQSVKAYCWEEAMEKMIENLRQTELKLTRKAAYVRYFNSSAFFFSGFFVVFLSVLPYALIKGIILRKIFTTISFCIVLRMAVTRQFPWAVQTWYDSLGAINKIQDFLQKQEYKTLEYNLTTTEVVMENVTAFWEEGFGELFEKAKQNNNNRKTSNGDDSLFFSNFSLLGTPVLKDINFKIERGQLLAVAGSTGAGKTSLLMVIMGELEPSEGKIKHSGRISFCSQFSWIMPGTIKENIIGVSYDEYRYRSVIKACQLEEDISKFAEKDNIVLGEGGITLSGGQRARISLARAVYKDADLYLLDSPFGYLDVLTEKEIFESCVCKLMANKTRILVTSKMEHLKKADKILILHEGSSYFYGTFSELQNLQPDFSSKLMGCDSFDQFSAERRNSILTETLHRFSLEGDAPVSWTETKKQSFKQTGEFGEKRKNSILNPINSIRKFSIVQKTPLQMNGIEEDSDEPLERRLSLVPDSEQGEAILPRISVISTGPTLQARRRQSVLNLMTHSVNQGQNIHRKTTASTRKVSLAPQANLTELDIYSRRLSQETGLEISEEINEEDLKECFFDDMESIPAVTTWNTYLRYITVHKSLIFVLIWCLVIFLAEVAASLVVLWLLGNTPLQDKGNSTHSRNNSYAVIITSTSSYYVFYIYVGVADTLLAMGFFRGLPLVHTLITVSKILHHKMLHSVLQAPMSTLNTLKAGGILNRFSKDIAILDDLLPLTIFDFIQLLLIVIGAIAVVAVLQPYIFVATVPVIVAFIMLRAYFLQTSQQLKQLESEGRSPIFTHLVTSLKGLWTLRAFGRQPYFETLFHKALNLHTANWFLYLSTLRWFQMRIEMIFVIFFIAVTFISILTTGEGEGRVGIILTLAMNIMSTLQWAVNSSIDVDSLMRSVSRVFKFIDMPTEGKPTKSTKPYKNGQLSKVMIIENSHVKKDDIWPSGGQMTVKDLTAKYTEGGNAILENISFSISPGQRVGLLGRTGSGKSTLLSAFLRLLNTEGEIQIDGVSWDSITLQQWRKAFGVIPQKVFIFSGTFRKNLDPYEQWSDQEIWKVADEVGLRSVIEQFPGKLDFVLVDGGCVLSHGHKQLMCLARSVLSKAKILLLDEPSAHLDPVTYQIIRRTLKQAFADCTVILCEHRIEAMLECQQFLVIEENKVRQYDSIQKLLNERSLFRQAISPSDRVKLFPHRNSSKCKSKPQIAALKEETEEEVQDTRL
# pEC50 values compiled below
Reminder that pEC50 is minus the log10 of a molar concentration.

# count of solved cases: 6
>>> df
                                   compound                                    system  measured_result
0  O=C(O)c1cc(N2CCN(CC(=O)N3CCCC3)CC2)c2c(C3CCC3)nn(-c3ccccc3)c2n1 [compound 472]  ΔF508-CFTR (Homo sapiens, UniProt P13569, DEL508-508)             5.60
1  COCC1(OC)CCN(c2cc(C(=O)O)nc3c2c(C2CCC2)nn3-c2ccccc2)CC1 [compound 526]  ΔF508-CFTR (Homo sapiens, UniProt P13569, DEL508-508)             6.39
2  COCCOC1CCN(c2cc(C(=O)O)nc3c2c(C2CCC2)nn3-c2ccccc2)CC1 [compound 685]  ΔF508-CFTR (Homo sapiens, UniProt P13569, DEL508-508)             6.78
3  CC(C)N1CCC2(CCN(c3cc(C(=O)O)nc4c3c(C3CCC3)nn4-c3ccc(F)cc3)CC2)CC1 [compound 890]  ΔF508-CFTR (Homo sapiens, UniProt P13569, DEL508-508)             6.13
4  O=C(O)c1cc(N2CCC3(CCNC3=O)C2)c2c(C3CCC3)nn(-c3ccccc3)c2n1 (centres unmarked) [compound 537]  ΔF508-CFTR (Homo sapiens, UniProt P13569, DEL508-508)             5.48
5  O=C(O)c1cc(OC2CCOCC2)c2c(C3CCC3)nn(-c3ccccc3)c2n1 [compound 579]  ΔF508-CFTR (Homo sapiens, UniProt P13569, DEL508-508)             6.62

Now for another entry.
Exercise: Param item = COCC(COC)Oc1cc(C(=O)O)nc2c1c(C(C)C)nn2-c1ccc(F)cc1 [compound 654] ; retrieve measured pEC50.
Solution: 5.48

----------
Target: ΔF508-CFTR (Homo sapiens, UniProt P13569, DEL508-508)
Construct: host or cells: CFBE41o-, doxycycline-inducible
Experiment: CFTR cell surface levels using HRP-tagged ΔF508-CFTR expressing CFBE cells, intrinsic corrector capacity
Type: cell-based
Conditions: HRP-tagged ΔF508-CFTR expressing CFBE cells; intrinsic corrector capacity (no co-corrector); 33° C., 20 hours; read-out: EC50
Description: Measuring CFTR Cell Surface Levels Using HRP-Tagged AF508-CFTR Expressing CFBE Cells The HRP-tagged AF508-CFTR cell assay measures the expression of CFTR-ΔF508 at the plasma membrane. […] When HRP-tagged AF508-CFTR is present at the plasma membrane, the HRP enzyme activity can be measured. The amount of CFTR-ΔF508 that can be rescued to the plasma membrane is correlated with the amount of functional enzyme that can be measured. […]
Readout name: pEC50
Quick note: pEC50 values are minus log10 of concentrations in mol/L.

In [3]: df
Out[3]:
                                   molecule                                    system  measured_result
0  CCN1CCCN(c2cc(C(=O)O)nc3c2c(C(C)C)nn3-c2ccc(F)cc2)CC1  ΔF508-CFTR (Homo sapiens, UniProt P13569, DEL508-508)             5.30
1  CN1CCC2(CC1)CCN(c1cc(C(=O)O)nc3c1c(C1CCC1)nn3-c1ccccc1)CC2  ΔF508-CFTR (Homo sapiens, UniProt P13569, DEL508-508)             6.21
2  CC(C)Oc1nn(C2CCCCC2)c2nc(C(=O)O)cc(-c3ccc(CN4CCN(C5CC5)CC4)cc3)c12  ΔF508-CFTR (Homo sapiens, UniProt P13569, DEL508-508)             6.53

Consider the record given below.
Exercise: Recorded pEC50 of `CS(=O)(=O)N1CCC(F)(COc2cc(C(=O)O)nc3c2c(C2CCC2)nn3-c2ccccc2)CC1` , please.
Solution: 5.57

----------
Molecular target: ΔF508-CFTR (Homo sapiens, UniProt P13569, DEL508-508)
Construct: host or cells: CFBE41o-, doxycycline-inducible
Assay: CFTR cell surface levels using HRP-tagged ΔF508-CFTR expressing CFBE cells, in the presence of a co-corrector
Assay type: cell-based
Conditions: HRP-tagged ΔF508-CFTR expressing CFBE cells, in the presence of 3 μM co-corrector; read-out: EC50
From the text: Measuring CFTR Cell Surface Levels Using HRP-Tagged AF508-CFTR Expressing CFBE Cells The HRP-tagged AF508-CFTR cell assay measures the expression of CFTR-ΔF508 at the plasma membrane. […] When HRP-tagged AF508-CFTR is present at the plasma membrane, the HRP enzyme activity can be measured. The amount of CFTR-ΔF508 that can be rescued to the plasma membrane is correlated with the amount of functional enzyme that can be measured. […]
Readout name: EC50 (µM)
Write the number in µM without appending the unit.

Exercise: Given O=C(O)c1cc(-c2ccc(N3CCN(C4CC4)CC3)nc2)c2c(C3CCC3)nn(C3CCCCC3)c2n1 [compound 868] , state its recorded EC50.
Solution: 0.176

Exercise: Look at this molecule and give its reported EC50. CC1(COc2cc(C(=O)O)nc3c2c(C2CCC2)nn3-c2ccccc2)CC1 [compound 630]
Solution: 0.254

Exercise: Return reported EC50; argument: Cc1cccc(-n2nc(C(C)C)c3c(N4CC5(CCC5)C4)cc(C(=O)O)nc32)c1 [compound 273]
Solution: 0.985

Exercise: Could you tell me which EC50 is on file for COCCC1(CCOc2cc(C(=O)O)nc3c2c(C2CCC2)nn3-c2ccccc2)CC1 [compound 484] ?
Solution: 0.369

Exercise: Query: EC50; subject: COCCC1CCN(c2cc(C(=O)O)nc3c2c(C2CCC2)nn3-c2ccccc2)CC1 [compound 403]
Solution: 0.311

Exercise: Please look up its EC50: CC1(CCOc2cc(C(=O)O)nc3c2c(C2CCC2)nn3-c2ccccc2)CC1 [compound 631]
Solution: 0.177

Exercise: What does the record list as EC50 for O=C(O)c1cc(OCCOC2COC2)c2c(C3CCC3)nn(-c3ccccc3)c2n1 [compound 483] ?
Solution: 0.367

Exercise: Quick check: EC50 of CN1CCCN(C(=O)CCN2CCN(c3cc(C(=O)O)nc4c3c(C3CCC3)nn4-c3ccccc3)CC2)CC1 [compound 717] ?
Solution: 5

----------
A collection of compounds and their measured pEC50
biological target: ΔF508-CFTR (Homo sapiens, UniProt P13569, DEL508-508); construct: host or cells: CFBE41o-, doxycycline-inducible; assay: CFTR cell surface levels using HRP-tagged ΔF508-CFTR expressing CFBE cells, in the presence of a co-corrector; type: cell-based; settings: HRP-tagged ΔF508-CFTR expressing CFBE cells, in the presence of 3 μM co-corrector; read-out: EC50
For clarity, pEC50 is expressed as the negative log10 of concentration in mol/L.

Known results for compounds:
>>> df
                                   molecule  readout_name  measured_result
0  CC(C)c1nn(-c2ccc(F)cc2)c2nc(C(=O)O)cc(N3CCC(C(=O)N4CCN(C)CC4)CC3)c12         pEC50             5.78
1  CCOC(=O)N1CCN(c2cc(C(=O)O)nc3c2c(C2CCC2)nn3-c2ccc(F)cc2)CC1         pEC50             7.08
2  CC(C)(C)c1nn(C2CCCC2)c2nc(C(=O)O)cc(-c3cnc(N4CCOCC4)nc3)c12         pEC50             6.34

Exercise: Please look up its pEC50: `COCC1CN(c2cc(C(=O)O)nc3c2c(C)nn3-c2ccccc2)C1`
Solution: 5.60

----------
molecular target: ΔF508-CFTR (Homo sapiens, UniProt P13569, DEL508-508); construct: host or cells: CFBE41o-, doxycycline-inducible; assay: CFTR cell surface levels using HRP-tagged ΔF508-CFTR expressing CFBE cells, intrinsic corrector capacity; type: cell-based; conditions: HRP-tagged ΔF508-CFTR CFBE41o- cells, compounds alone (intrinsic corrector capacity), 20 hours at 33° C.; read-out: EC50
pEC50: −log10 of the molar value.
Use met when the recorded pEC50 is no lower than 6; use not met when it is lower.

Previously resolved entries follow.
                                   molecule                                    system  answer_label
0  Cc1cccc(-n2nc(C(C)C)c3c(-c4ccc(N5CCOCC5)cc4)cc(C(=O)O)nc32)c1  ΔF508-CFTR (Homo sapiens, UniProt P13569, DEL508-508)           met
1  Cc1nn(-c2ccccc2)c2nc(C(=O)O)cc(OCC3CCCCC3)c12  ΔF508-CFTR (Homo sapiens, UniProt P13569, DEL508-508)       not met
2  Cc1nn(-c2ccccc2)c2nc(C(=O)O)cc(OCC3(CF)CC3)c12  ΔF508-CFTR (Homo sapiens, UniProt P13569, DEL508-508)       not met
3  Cc1nn(-c2ccccc2)c2nc(C(=O)O)cc(N3CC[C@H](F)C3)c12  ΔF508-CFTR (Homo sapiens, UniProt P13569, DEL508-508)       not met
4  CC(=O)N1CCC2CN(c3cc(C(=O)O)nc4c3c(C(C)C)nn4-c3cccc(C)c3)CCC21 (stereo not shown)  ΔF508-CFTR (Homo sapiens, UniProt P13569, DEL508-508)           met

Exercise: Is pEC50 at least 6? Consider `Cc1nn(-c2ccccc2)c2nc(C(=O)O)cc(N3CC[C@@H](F)C3)c12`
Solution: not met

Exercise: Please indicate if the recorded pEC50 for `Cc1nn(-c2ccccc2)c2nc(C(=O)O)cc(-c3ccc(NC4COC4)cc3)c12` meets or exceeds 6.
Solution: not met

Exercise: Please tell me: is the molecule `Cc1nn(-c2ccccc2)c2nc(C(=O)O)cc(OC3COC3)c12` at or over 6 in terms of pEC50?
Solution: not met

Exercise: Does `Cc1nn(-c2ccccc2)c2nc(C(=O)O)cc(-c3ccc(C4=CCN(C)CC4)cc3)c12` have a reported pEC50 of at least 6?
Solution: not met
